Target: Quinolone resistance protein NorA (Staphylococcus aureus)
Assay: Modulation of norfloxacin-induced inhibition of NorA efflux pump in Staphylococcus aureus 1199B overexpressing NorA efflux pump assessed as reduction in norfloxacin MIC at 1/4 times of MIC by resazurin based assay
REPORTED_METRIC: MIC (mg/L)
Just the number please, in mg/L, no unit attached.

COMPOUND: C[C@@H]1O[C@@H](Oc2c(-c3cc(O)c(O)c(O)c3)oc3cc(O)cc(O)c3c2=O)[C@H](O)[C@H](O)[C@H]1O
VALUE_UNITS: mg/L
MIC: 32
//
COMPOUND: O=C(CCc1ccc(O)cc1)c1c(O)cc(O)cc1O
VALUE_UNITS: mg/L
MIC: 32
//
COMPOUND: O=C1C[C@@H](c2ccc(O)cc2)Oc2cc(O)cc(O)c21
VALUE_UNITS: mg/L
MIC: 32
//
COMPOUND: COc1ccc(-c2cc(=O)c3c(O)cc(O[C@@H]4O[C@H](CO[C@@H]5O[C@@H](C)[C@H](O)[C@@H](O)[C@H]5O)[C@@H](O)[C@H](O)[C@H]4O)cc3o2)cc1O
VALUE_UNITS: mg/L
MIC: 32
//
COMPOUND: C[C@@H]1O[C@@H](Oc2c(-c3ccc(O)c(O)c3)oc3cc(O)cc(O)c3c2=O)[C@H](O)[C@H](O)[C@H]1O
VALUE_UNITS: mg/L
MIC: 64

Looking for the measured MIC of COc1ccc([C@@H]2CC(=O)c3c(O)cc(O)cc3O2)cc1O , can you help?
8

Looking for the measured MIC of O=c1c(O)c(-c2cc(O)c(O)c(O)c2)oc2cc(O)cc(O)c12 , can you help?
256

* * *

Listed molecules paired with reported MIC
Tested on: Staphylococcus aureus
Assay: Antibacterial activity against Staphylococcus aureus EMRSA-15 assessed as bacterial growth inhibition incubated for 18 hrs by MTT assay
Type: functional
Just the number please, in µg/mL, no unit attached.

Use the examples below as a reference point.
COMPOUND: COc1ccc(-c2cc(=O)c3c(O)cc(O)cc3o2)cc1O
VALUE_UNITS: µg/mL
MIC: 32
--
COMPOUND: CC1(C)C=Cc2c(cc3occ(-c4ccc(O)cc4)c(=O)c3c2O)O1
VALUE_UNITS: µg/mL
MIC: 32
--
COMPOUND: COc1ccc(-c2coc3cc(O)cc(O)c3c2=O)cc1O
VALUE_UNITS: µg/mL
MIC: 32

Looking for the measured MIC of COc1ccc(-c2cc(=O)c3ccc(O)cc3o2)cc1O , can you help?
32

Looking for the measured MIC of O=c1c(-c2ccc(O)cc2)coc2cc(O)cc(O)c12 , can you help?
32

* * *

Biological target: ATP-dependent translocase ABCB1 (Homo sapiens)
Assay: Inhibition of P-gp mediated efflux in human LS180 cells using digoxin as substrate incubated for 90 mins by fluorescence assay
REPORTED_METRIC: pIC50
Note on units: pIC50 is unitless, being -log10 of a concentration expressed in mol/L.

Which measured pIC50 belongs to CC(=O)c1c(-c2ccc(F)cc2)cn(-c2ccc(C)cc2)c1C , tested on ATP-dependent translocase ABCB1 (Homo sapiens)?
4.95

* * *

Test system: A549
Test: Cytotoxicity against human A549 cells assessed as reduction in cell viability by sulforhodamine B assay
Assay type: functional, cell-based
REPORTED_METRIC: pIC50
Note on units: pIC50 is unitless, being -log10 of a concentration expressed in mol/L.

Looking for the measured pIC50 of CC[C@H](C)C(=O)c1c(O)cc(O)cc1OC/C=C(\C)CCC=C(C)C [OLYMPICIN A] , can you help?
4.98

Sourced from ChEMBL document CHEMBL5244281
